- studySystem: N-formyl peptide receptor 2 (Homo sapiens) (UniProt P25090)
- Sequence (P25090 whole entry, looked up): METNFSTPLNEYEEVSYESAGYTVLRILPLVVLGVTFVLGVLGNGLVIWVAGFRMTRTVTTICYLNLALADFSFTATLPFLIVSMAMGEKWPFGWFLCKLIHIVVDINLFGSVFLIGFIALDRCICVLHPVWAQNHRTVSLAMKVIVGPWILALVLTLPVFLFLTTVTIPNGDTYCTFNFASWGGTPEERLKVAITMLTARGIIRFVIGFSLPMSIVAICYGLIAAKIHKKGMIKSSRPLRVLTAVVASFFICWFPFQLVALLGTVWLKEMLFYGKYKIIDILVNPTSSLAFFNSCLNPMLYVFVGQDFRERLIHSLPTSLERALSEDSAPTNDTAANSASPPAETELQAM
- protocolSummary: FPRL1 fluorescent ligand binding inhibitors, cell-based, flow cytometry, single concentration (AID 765)
- experimentalParameters: FPRL1-expressing cells, hits give high values; at 5.1 µM unless noted
Active and inactive are the calls of the source. Cut-off read from the data, not from the text of the source: active = inhibition above about 31%; inactive = the rest.
Measured inhibition, listed per entry for reference.

Study these solved cases before continuing.
{"molecule": "COc1ccc(-c2cn3cccnc3n2)cc1NC(=O)C(C)Oc1ccccc1 (stereo not drawn)", "result": "-8.6% [at 5.7 µM] (inactive)"}
{"molecule": "COc1ccccc1N1CCN(c2nc(-c3ccc(F)cc3)cc(C(F)(F)F)n2)CC1", "result": "-8.4% (inactive)"}
{"molecule": "COc1cccc(C(=O)Nc2cc(-c3cn4cccnc4n3)ccc2OC)c1", "result": "12.2% [at 5.9 µM] (inactive)"}
{"molecule": "COc1ccccc1-c1cc(C(F)(F)F)nc(N2CCN(c3ccc(F)cc3)CC2)n1", "result": "-8.8% (inactive)"}

Ask: So what does the record say about inhibition for Fc1ccc(-c2cc(C(F)(F)F)nc(N3CCN(c4ccccc4)CC3)n2)cc1 ?
Result: 1.9% [at 5.5 µM] (inactive)

Ask: So what does the record say about inhibition for CC(=O)N1CCN(c2nc(-c3ccccc3)c3ccccc3n2)CC1 ?
Result: -11.2% [at 6.7 µM] (inactive)

Ask: So what does the record say about inhibition for CC(C)(C)OC(=O)N1CCN(c2nc(-c3ccccc3Cl)c3cc(Br)ccc3n2)CC1 ?
Result: -9.1% [at 4.4 µM] (inactive)

Ask: So what does the record say about inhibition for CCOC(=O)N1CCN(c2nc(-c3ccc(Cl)cc3)cc(C(F)(F)F)n2)CC1 ?
Result: -12% [at 5.4 µM] (inactive)
